- test-summary: Pharmacokinetic analyses, plasma, cycle 1 day 4 and day 5
- measurement-parameters: human, plasma, intravenous, 600 mg/m^2, t 1/2, 600 mg/m^2 Bel + 75 mg/m^2 doxorubicin, Day 4 (Bel alone), N: 3
parameter: half-life

### Prompt Request the reported half-life associated with O=C(/C=C/c1cccc(S(=O)(=O)Nc2ccccc2)c1)NO
### Response 3.77 h
